Tested on: Staphylococcus aureus ATCC29213
Test: Minimum Inhibitory Concentration (MIC) testing, broth microdilution, Staphylococcus aureus
Type: cell-based
Settings: Staphylococcus aureus ATCC29213; read-out: Staphylococcus aureus MICs Activity
TEST_READOUT: MIC

Inquiry: # lookup: MIC of NC(=O)c1c(F)ccc(OCc2nc(-c3ccccc3)no2)c1F
Reply text: < 8 µg/mL

Inquiry: Return reported MIC; argument: Cc1cccc(COc2cccc(C(N)=O)c2)c1
Reply text: 16 to 64 µg/mL

Inquiry: Could you tell me which MIC is on file for Cc1ccc(-c2nc(COc3ccc(F)c(C(N)=O)c3F)co2)cc1 ?
Reply text: < 8 µg/mL
